- assay summary: Whole blood PK of drug eluting stents
- run conditions: pig, whole blood, other: drug eluting stent implanted in coronary artery, Whole blood concentration, SS17 stents; 1 D group; 5 hr
measured metric: concentration at 5 h
Remember to quote the unit after the number.

Data request: Looking for the measured concentration at 5 h of O=C(NC[C@H]1CN(c2ccc(N3CCOCC3=O)cc2)C(=O)O1)c1ccc(Cl)s1 , can you help?
Data returned: 3.9 ng/mL

====

- assay summary: in vivo
- Design: species or system Sprague-Dawley rats
- run conditions: male, Sprague-Dawley, rat, inhaled or intranasal
measured metric: Tmax

COc1ccc(-n2nc(C(N)=O)c3c2C(=O)N(c2ccc(N4CCCCC4=O)cc2)CC3)cc1    5 to 10 min

Next up:
Data request: Looking for the measured Tmax of CC1CNc2c(cccc2S(=O)(=O)N[C@@H](CCCNC(=N)N)C(=O)N2CC[C@@H](C)C[C@@H]2C(=O)O)C1 (some centres unmarked) , can you help?
Data returned: ~60 min

====

- assay summary: Coated balloon tissue drug concentration in vivo (LCMS)
- Design: species or system porcine
- run conditions: pig, coronary artery wall, 300 μg
measured metric: concentration at 15 min (ng/g)
Numeric only. Scale: ng/g

Data request: Looking for the measured concentration at 15 min of O=C(NC[C@H]1CN(c2ccc(N3CCOCC3=O)cc2)C(=O)O1)c1ccc(Cl)s1 [Rivaroxaban] , can you help?
Data returned: 1230

====

- assay summary: Solubility in water / aqueous buffer / Captisol
- run conditions: water, solubility in water
measured metric: solubility

Data request: Looking for the measured solubility of COc1ccc(-n2nc(C(N)=O)c3c2C(=O)N(c2ccc(N4CCCCC4=O)cc2)CC3)cc1 , can you help?
Data returned: ~28 µg/mL

====

- assay summary: Coated balloon tissue drug concentration in vivo (LCMS)
- Set-up: species or system porcine
- run conditions: pig, superficial femoral artery wall, 300 μg
measured metric: concentration at 15 min (ng/g)
Numeric only. Scale: ng/g

Data request: Looking for the measured concentration at 15 min of O=C(NC[C@H]1CN(c2ccc(N3CCOCC3=O)cc2)C(=O)O1)c1ccc(Cl)s1 [Rivaroxaban] , can you help?
Data returned: 40600

====

- assay summary: Whole blood PK of drug eluting stents
- run conditions: pig, whole blood, other: drug eluting stents implanted in coronary arteries, Whole blood concentration, SS17 stents; 1 D group; 15 min.
measured metric: concentration at 15 min (ng/mL)
Numeric only. Scale: ng/mL

Data request: Looking for the measured concentration at 15 min of O=C(NC[C@H]1CN(c2ccc(N3CCOCC3=O)cc2)C(=O)O1)c1ccc(Cl)s1 , can you help?
Data returned: 24

====

- assay summary: Whole blood PK of drug eluting stents
- run conditions: pig, whole blood, other: drug eluting stents implanted in coronary arteries, Whole blood concentration, SS16 stents; 1 D group; 4 hr
measured metric: concentration at 4 hr

Data request: Looking for the measured concentration at 4 hr of O=C(NC[C@H]1CN(c2ccc(N3CCOCC3=O)cc2)C(=O)O1)c1ccc(Cl)s1 , can you help?
Data returned: 1.23 ng/mL

====

- assay summary: Whole blood PK of drug eluting stents
- run conditions: pig, whole blood, other: drug eluting stent implanted in coronary artery, Whole blood concentration, SS16 stents; 1 H group; 30 min.
measured metric: concentration at 30 min (ng/mL)
Numeric only. Scale: ng/mL

Data request: Looking for the measured concentration at 30 min of O=C(NC[C@H]1CN(c2ccc(N3CCOCC3=O)cc2)C(=O)O1)c1ccc(Cl)s1 , can you help?
Data returned: 3.34

====

- assay summary: Whole blood PK of drug eluting stents
- run conditions: pig, whole blood, other: drug eluting stents implanted in coronary arteries, Whole blood concentration, SS16 stents; 1 D group; 90 min.
measured metric: concentration at 90 min
Remember to quote the unit after the number.

Data request: Looking for the measured concentration at 90 min of O=C(NC[C@H]1CN(c2ccc(N3CCOCC3=O)cc2)C(=O)O1)c1ccc(Cl)s1 , can you help?
Data returned: 2.43 ng/mL

====

- Design: species or system Sprague-Dawley rats
- run conditions: male, Sprague-Dawley, rat, in vivo
Structures can show the parent of a compound that is named as a salt.
measured metric: time the drug content in lungs tissue lasted

CCN(CCO)CCCC(C)Nc1ccnc2cc(Cl)ccc12 (stereo not shown) [Hydroxychloroquine, Hydroxychloroquine sulfate]    more than 5 hours
CN1CCCC(n2nc(Cc3ccc(Cl)cc3)c3ccccc3c2=O)CC1 (stereo not shown) [Azelastine, Azelastine hydrochloride]    more than 5 hours
CC1CNc2c(cccc2S(=O)(=O)N[C@@H](CCCNC(=N)N)C(=O)N2CC[C@@H](C)C[C@@H]2C(=O)O)C1 (stereo partly shown) [Argatroban]    more than 5 hours

====

- assay summary: Whole blood PK of drug eluting stents
- run conditions: pig, whole blood, other: drug eluting stent implanted in coronary artery, Whole blood concentration, SS17 stents; 1 D group; 24 hr (Day 1)
measured metric: concentration at 24 h (ng/mL)
Numeric only. Scale: ng/mL

Data request: Looking for the measured concentration at 24 h of O=C(NC[C@H]1CN(c2ccc(N3CCOCC3=O)cc2)C(=O)O1)c1ccc(Cl)s1 [Rivaroxaban] , can you help?
Data returned: 0.16

====

- assay summary: Whole blood PK of drug eluting stents
- run conditions: pig, whole blood, other: drug eluting stents implanted in coronary arteries, Whole blood concentration, SS17 stents; 1 D group; 45 min.
measured metric: concentration at 45 min (ng/mL)
Numeric only. Scale: ng/mL

Data request: Looking for the measured concentration at 45 min of O=C(NC[C@H]1CN(c2ccc(N3CCOCC3=O)cc2)C(=O)O1)c1ccc(Cl)s1 , can you help?
Data returned: 19.5

====

- assay summary: Whole blood PK of drug eluting stents
- run conditions: pig, whole blood, other: drug eluting stents implanted in coronary arteries, Whole blood concentration, SS17 stents; 1 D group; 150 min.
measured metric: concentration at 150 min (ng/mL)
Numeric only. Scale: ng/mL

Data request: Looking for the measured concentration at 150 min of O=C(NC[C@H]1CN(c2ccc(N3CCOCC3=O)cc2)C(=O)O1)c1ccc(Cl)s1 , can you help?
Data returned: 11.3

====

- assay summary: Whole blood PK of drug eluting stents
- run conditions: pig, whole blood, other: drug eluting stent implanted in coronary artery, Whole blood concentration, SS17 stents; 1 D group; 6 hr
measured metric: concentration at 6 h (ng/mL)
Numeric only. Scale: ng/mL

Data request: Looking for the measured concentration at 6 h of O=C(NC[C@H]1CN(c2ccc(N3CCOCC3=O)cc2)C(=O)O1)c1ccc(Cl)s1 , can you help?
Data returned: 3.1

====

- assay summary: Whole blood PK of drug eluting stents
- run conditions: pig, whole blood, other: drug eluting stents implanted in coronary arteries, Whole blood concentration, SS17 stents; 1 H group; 45 min.
measured metric: concentration at 45 min (ng/mL)
Numeric only. Scale: ng/mL

Data request: Looking for the measured concentration at 45 min of O=C(NC[C@H]1CN(c2ccc(N3CCOCC3=O)cc2)C(=O)O1)c1ccc(Cl)s1 , can you help?
Data returned: 7.82

====

- assay summary: Whole blood PK of drug eluting stents
- run conditions: pig, whole blood, other: drug eluting stents implanted in coronary arteries, Whole blood concentration, SS16 stents; 1 D group; 60 min. (1 hr)
measured metric: concentration at 60 min (ng/mL)
Numeric only. Scale: ng/mL

Data request: Looking for the measured concentration at 60 min of O=C(NC[C@H]1CN(c2ccc(N3CCOCC3=O)cc2)C(=O)O1)c1ccc(Cl)s1 , can you help?
Data returned: 2.61

====

- assay summary: Whole blood PK of drug eluting stents
- run conditions: pig, whole blood, other: drug eluting stent implanted in coronary artery, Whole blood concentration, SS16 stents; 1 D group; 30 min.
measured metric: concentration at 30 min (ng/mL)
Numeric only. Scale: ng/mL

Data request: Looking for the measured concentration at 30 min of O=C(NC[C@H]1CN(c2ccc(N3CCOCC3=O)cc2)C(=O)O1)c1ccc(Cl)s1 , can you help?
Data returned: 3.76

====

- assay summary: Whole blood PK of drug eluting stents
- run conditions: pig, whole blood, other: drug eluting stents implanted in coronary arteries, Whole blood concentration, SS16 stents; 1 D group; 6 hr
measured metric: concentration at 6 hr (ng/mL)
Numeric only. Scale: ng/mL

Data request: Looking for the measured concentration at 6 hr of O=C(NC[C@H]1CN(c2ccc(N3CCOCC3=O)cc2)C(=O)O1)c1ccc(Cl)s1 , can you help?
Data returned: 1.03

====

- assay summary: Whole blood PK of drug eluting stents
- run conditions: pig, whole blood, other: drug eluting stents implanted in coronary arteries, Whole blood concentration, SS17 stents; 1 H group; 30 min.
measured metric: concentration at 30 min (ng/mL)
Numeric only. Scale: ng/mL

Data request: Looking for the measured concentration at 30 min of O=C(NC[C@H]1CN(c2ccc(N3CCOCC3=O)cc2)C(=O)O1)c1ccc(Cl)s1 , can you help?
Data returned: 8.44

====

- assay summary: Whole blood PK of drug eluting stents
- run conditions: pig, whole blood, other: drug eluting stents implanted in coronary arteries, Whole blood concentration, SS17 stents; 1 D group; 30 min.
measured metric: concentration at 30 min (ng/mL)
Numeric only. Scale: ng/mL

Data request: Looking for the measured concentration at 30 min of O=C(NC[C@H]1CN(c2ccc(N3CCOCC3=O)cc2)C(=O)O1)c1ccc(Cl)s1 [Rivaroxaban] , can you help?
Data returned: 20.1
